Measurement record for Tyrosinase (Agaricus bisporus, UniProt O42713); quantity recorded: IC50.
readout: IC50 (µM)

Answered examples (2):
itemSmiles	unitInfo	IC50
COc1ccc(CC(=O)c2ccc(O)cc2O)cc1	µM	160
COc1ccc(CC(=O)c2ccc(O)cc2O)cc1OC	µM	209

A: COc1ccc(C(=O)Cc2ccc(O)cc2)c(O)c1O
B: COc1ccc(CC(=O)c2c(O)cc(O)cc2O)cc1
C: COc1ccc(CC(=O)c2ccc(O)c(O)c2O)cc1OC
Query: Ranking field: IC50; order: falling. Answer format: the labels, ordered as requested.
Response: B, C, A
(B: 214 µM, C: 132 µM, A: 43.1 µM)

---

Measurement record for Tyrosinase (Agaricus bisporus); quantity recorded: pIC50.
pIC50: −log10 of the molar value.
readout: pIC50

1: COc1ccc(CC(=O)c2c(O)cc(O)cc2O)cc1
2: COc1ccc(CC(=O)c2ccc(O)cc2O)cc1OC
Query: # min-compare on pIC50 between 1 and 2 # answer = label of selected item
Response: 2
(2: 3.95, 1: 4.15)

I: COc1ccc(CC(=O)c2ccc(O)c(O)c2O)cc1OC
II: COc1ccc(CC(=O)c2ccc(O)cc2O)cc1
III: COc1ccc(C(=O)Cc2ccc(O)cc2)c(O)c1O
Query: Ranking field: pIC50; order: falling. Answer format: the labels, ordered as requested.
Response: III, II, I

A: COc1ccc(CC(=O)c2cc(O)c(O)cc2O)cc1
B: O=C(Cc1ccc(O)cc1)c1ccc(O)cc1O
Query: Which shows the larger pIC50 value: A or B ? # answer = label of selected item
Response: A

---

Measurement record for Radical scavenging activity; quantity recorded: IC50.
readout: IC50 (µM)

compound	unitInfo	IC50
COc1ccc(CC(=O)c2ccc(O)c(O)c2)cc1OC	µM	2.53
O=C(Cc1ccc(O)cc1)c1cc(O)c(O)cc1O	µM	0.69

A: Cc1c(C)c2c(c(C)c1O)CCC(C)(C(=O)O)O2 (configuration not stated)
B: COc1ccc(CC(=O)c2ccc(O)c(O)c2O)cc1
Query: Which shows the larger IC50 value: A or B ? # answer = label of selected item
Response: B

1: COc1ccc(CC(=O)c2c(O)cc(O)cc2O)cc1
2: COc1ccc(CC(=O)c2c(O)cc(O)cc2O)cc1OC
Query: Which shows the larger IC50 value: 1 or 2 ? # answer = label of selected item
Response: 1
(1: 10.8 µM, 2: 1.35 µM)

---

- Test system: Radical scavenging activity
readout: IC50 (µM)

Answered examples (5):
itemSmiles	readout	obsValue
COc1ccc(CC(=O)c2cc(O)c(C)c(C)c2O)cc1	IC50	21.9
O=C(Cc1ccc(O)cc1)c1ccc(O)c(O)c1O	IC50	5.69
O=C(Cc1ccc(O)cc1)c1ccc(O)cc1O	IC50	25.2
O=C(Cc1ccccc1)c1c(O)cc(O)cc1O	IC50	12.2
COc1ccc(CC(=O)c2ccc(O)cc2O)cc1	IC50	57.4

I: COc1ccc(CC(=O)c2ccc(O)c(O)c2O)cc1OC
II: COc1cc(O)c(C(=O)Cc2ccccc2)cc1O
Query: Which shows the larger IC50 value: I or II ? # answer = label of selected item
Response: II
(II: 20.3 µM, I: 4.34 µM)

P: COc1ccc(CC(=O)c2ccc(O)c(O)c2)cc1
Q: O=C(Cc1ccc(O)cc1)c1c(O)cc(O)cc1O
Query: Which shows the larger IC50 value: P or Q ? # answer = label of selected item
Response: P
(P: 75.9 µM, Q: 22.8 µM)

I: O=C1O[C@H]([C@@H](O)CO)C(O)=C1O
II: COc1ccc(C(=O)Cc2ccc(O)cc2)c(O)c1O
Query: # min-compare on IC50 between I and II # answer = label of selected item
Response: II

---

Measurement record for UniProtKB O42713; quantity recorded: pIC50.
pIC50: −log10 of the molar value.
readout: pIC50

itemSmiles	obsValue
COc1ccc(CC(=O)c2ccc(O)c(O)c2O)cc1OC	3.85
COc1ccc(CC(=O)c2cc(O)c(O)cc2O)cc1	3.70
COc1ccc(CC(=O)c2c(O)cc(O)cc2O)cc1	3.64
O=C(Cc1ccc(O)cc1)c1ccc(O)cc1O	3.76
COc1ccc(CC(=O)c2ccc(O)c(O)c2)cc1	3.75

---

- testTarget: Tyrosinase (Agaricus bisporus)
- Sequence (O42713 whole entry): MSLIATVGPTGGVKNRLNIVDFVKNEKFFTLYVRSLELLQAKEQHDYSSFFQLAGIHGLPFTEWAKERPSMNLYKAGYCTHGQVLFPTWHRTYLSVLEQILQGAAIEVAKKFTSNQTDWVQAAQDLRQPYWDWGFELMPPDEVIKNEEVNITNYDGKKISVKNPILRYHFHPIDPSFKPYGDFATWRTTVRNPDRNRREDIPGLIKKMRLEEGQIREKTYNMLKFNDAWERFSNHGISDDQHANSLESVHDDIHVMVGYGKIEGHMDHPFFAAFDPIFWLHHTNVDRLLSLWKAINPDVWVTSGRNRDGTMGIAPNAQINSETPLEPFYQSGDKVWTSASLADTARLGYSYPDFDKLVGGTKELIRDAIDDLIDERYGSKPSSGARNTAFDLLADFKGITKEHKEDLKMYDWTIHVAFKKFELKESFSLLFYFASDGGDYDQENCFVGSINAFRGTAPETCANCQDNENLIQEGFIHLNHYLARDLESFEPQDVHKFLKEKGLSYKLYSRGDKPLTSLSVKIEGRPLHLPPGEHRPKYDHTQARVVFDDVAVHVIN
readout: IC50 (µM)

itemSmiles	unitInfo	IC50
COc1ccc(CC(=O)c2ccc(O)c(O)c2O)cc1	µM	212
COc1ccc(CC(=O)c2ccc(O)cc2O)cc1	µM	181
O=C(Cc1ccc(O)cc1)c1c(O)cc(O)cc1O	µM	261

A: COc1ccc(CC(=O)c2ccc(O)cc2O)cc1OC
B: COc1ccc(C(=O)Cc2ccc(O)cc2)c(O)c1O
Query: # min-compare on IC50 between A and B # answer = label of selected item
Response: B
(B: 46.1 µM, A: 240 µM)

---

Measurement record for Tyrosinase (Agaricus bisporus); quantity recorded: IC50.
readout: IC50 (µM)

itemSmiles	testTarget	unitInfo	IC50
O=C(Cc1ccc(O)cc1)c1ccc(O)cc1O	Tyrosinase (Agaricus bisporus)	µM	136
COc1ccc(CC(=O)c2cc(O)c(O)cc2O)cc1	Tyrosinase (Agaricus bisporus)	µM	144
COc1ccc(CC(=O)c2ccc(O)c(O)c2O)cc1	Tyrosinase (Agaricus bisporus)	µM	203
COc1ccc(CC(=O)c2ccc(O)c(O)c2)cc1	Tyrosinase (Agaricus bisporus)	µM	168

---

pIC50: −log10 of the molar value.
Measurement record for Tyrosinase (Agaricus bisporus); quantity recorded: pIC50.

Answered examples (3):
itemSmiles	pIC50
O=C(Cc1ccc(O)cc1)c1ccc(O)c(O)c1O	< 3.52
O=C(Cc1ccc(O)cc1)c1c(O)cc(O)cc1O	< 3.52
COc1ccc(CC(=O)c2ccc(O)c(O)c2O)cc1	< 3.52

Note: attention shifts to another entry.
Query: Can you look up pIC50 on Tyrosinase (Agaricus bisporus) for COc1ccc(CC(=O)c2ccc(O)c(O)c2)cc1 ?
Response: < 3.52
